Taken from patent US12209074B2.

- TARGET_SYSTEM: hERG channel (Homo sapiens (Human))
- Sequence (Q12809 whole entry): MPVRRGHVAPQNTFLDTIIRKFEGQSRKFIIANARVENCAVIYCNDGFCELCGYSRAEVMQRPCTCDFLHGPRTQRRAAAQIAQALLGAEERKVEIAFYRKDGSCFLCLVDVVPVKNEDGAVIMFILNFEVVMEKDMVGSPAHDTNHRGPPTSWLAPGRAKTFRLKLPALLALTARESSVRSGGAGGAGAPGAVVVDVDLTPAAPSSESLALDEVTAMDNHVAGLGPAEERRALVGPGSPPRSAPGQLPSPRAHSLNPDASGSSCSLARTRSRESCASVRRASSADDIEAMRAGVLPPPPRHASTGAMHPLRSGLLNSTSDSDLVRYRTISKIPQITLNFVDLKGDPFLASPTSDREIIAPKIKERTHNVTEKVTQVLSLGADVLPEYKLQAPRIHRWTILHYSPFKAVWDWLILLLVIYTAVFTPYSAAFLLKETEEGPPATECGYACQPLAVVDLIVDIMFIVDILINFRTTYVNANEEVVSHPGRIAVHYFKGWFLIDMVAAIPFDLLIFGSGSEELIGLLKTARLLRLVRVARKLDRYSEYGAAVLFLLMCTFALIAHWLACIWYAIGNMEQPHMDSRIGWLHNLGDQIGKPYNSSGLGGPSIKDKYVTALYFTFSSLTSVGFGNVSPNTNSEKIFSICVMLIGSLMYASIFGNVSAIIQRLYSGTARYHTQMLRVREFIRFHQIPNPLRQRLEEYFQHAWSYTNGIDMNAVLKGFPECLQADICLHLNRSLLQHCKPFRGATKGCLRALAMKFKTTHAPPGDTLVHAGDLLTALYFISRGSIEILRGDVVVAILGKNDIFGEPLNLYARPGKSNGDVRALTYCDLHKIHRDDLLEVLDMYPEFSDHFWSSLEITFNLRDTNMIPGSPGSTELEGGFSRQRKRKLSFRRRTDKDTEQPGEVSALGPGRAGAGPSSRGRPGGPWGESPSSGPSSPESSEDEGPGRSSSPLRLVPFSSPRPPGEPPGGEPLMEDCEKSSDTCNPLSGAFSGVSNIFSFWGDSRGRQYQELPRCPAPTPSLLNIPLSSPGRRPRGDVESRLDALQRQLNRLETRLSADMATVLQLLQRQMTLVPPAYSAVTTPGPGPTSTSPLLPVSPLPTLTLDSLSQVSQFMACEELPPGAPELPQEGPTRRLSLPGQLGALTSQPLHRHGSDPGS
- PROTOCOL_NOTES: hERG inhibitory activity, whole cell patch clamp in hERG-transfected HEK293 cells
- CONDITION_INFO: HEK293 cells transfected with hERG, tail current, tested at 30, 10, 2, 0.5, 0.1 μM
Measured IC50, listed per entry for reference.
The reply should be a number in nM, with the unit left off.

Example cases with answers are listed next.
Which IC50 value belongs to COc1nccc(-c2nc(CO)c(N3CCC4(CC3)Cc3ncc(C)cc3[C@H]4N)nc2C)c1Cl ?
2110

Field request: IC50 | item: Cc1nc(N2CCC3(CC2)Cc2ccccc2[C@H]3N)c(CO)nc1-c1ccnc(C(F)(F)F)c1Cl
4230

Reported IC50 for COc1ccc2c(c1)[C@@H](N)C1(CCN(c3nc(C)c(-c4ccnc(Cl)c4Cl)nc3CO)CC1)C2 : what is it?
2590

May I ask what IC50 has been recorded for Cc1ccc2c(c1)[C@@H](N)C1(CCN(c3nc(C)c(-c4ccnc(Cl)c4Cl)nc3CO)CC1)C2 ?
3030

Need IC50, item Cc1cnc2c(c1)[C@@H](N)C1(CCN(c3nc(C)c(-c4cc(N)nc(Cl)c4Cl)nc3CO)CC1)C2
6130

Continuing:
What does the record list as IC50 for Cc1nc(N2CCC3(CC2)Cc2ccccc2[C@H]3N)c(CO)nc1-c1ccnc(C#N)c1Cl ?
620

Look up IC50: Cc1nc(N2CCC3(CC2)Cc2ccccc2[C@H]3N)c(CO)nc1-c1cc(N)nc(Cl)c1Cl
4290

What measured IC50 goes with Cc1cnc2c(c1)[C@@H](N)C1(CCN(c3nc(C)c(-c4ccnc(Cl)c4Cl)nc3CO)CC1)C2 ?
1800
